Run Description: chemical genetic growth profiling, strain panel (AID 1159580);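 note: tested at 20 µM; growth read once vehicle control cultures reached saturation at 30 °C; lower values mean less growth of the strain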
Applied Conditions: S. cerevisiae deletion strains, growth OD, locus YDR318W, strain mcm21, active compounds read low
The campaign covered roughly 5,500 compounds. About 2,000 (36%) were called active. About 18% were inconclusive and are not listed. Some of the results follow.
Please respond with met when measured normalized growth is strictly beneath 1, and with not met in all other cases.

Answered examples (4):
{"columns": ["Smi", "Class Label"],
 "data": [
  ["COc1c2c(cc3occ(-c4ccc5c(c4)OCO5)c(=O)c13)OC(C)(C)C=C2", "met"],
  ["COc1cc2ccc(=O)oc2c(OC)c1OC", "not met"],
  ["Nc1ncnc2nc[nH]c12", "met"],
  ["CCS(=O)(=O)CCn1c([N+](=O)[O-])cnc1C", "not met"]
]}

[in] Confirm or reject: normalized growth of N#C/C(=C\c1ccc(O)cc1)C(=O)O lies strictly below 1
[out] not met

[in] Item CC1=C2[C@](C)(C=CC1=O)C[C@H](O)[C@H]1[C@H](C)C(=O)O[C@]21C : normalized growth beneath 1, strictly?
[out] not met
